Tested on: human ERα (Homo sapiens, UniProt P03372)
Sequence (P03372 1-595): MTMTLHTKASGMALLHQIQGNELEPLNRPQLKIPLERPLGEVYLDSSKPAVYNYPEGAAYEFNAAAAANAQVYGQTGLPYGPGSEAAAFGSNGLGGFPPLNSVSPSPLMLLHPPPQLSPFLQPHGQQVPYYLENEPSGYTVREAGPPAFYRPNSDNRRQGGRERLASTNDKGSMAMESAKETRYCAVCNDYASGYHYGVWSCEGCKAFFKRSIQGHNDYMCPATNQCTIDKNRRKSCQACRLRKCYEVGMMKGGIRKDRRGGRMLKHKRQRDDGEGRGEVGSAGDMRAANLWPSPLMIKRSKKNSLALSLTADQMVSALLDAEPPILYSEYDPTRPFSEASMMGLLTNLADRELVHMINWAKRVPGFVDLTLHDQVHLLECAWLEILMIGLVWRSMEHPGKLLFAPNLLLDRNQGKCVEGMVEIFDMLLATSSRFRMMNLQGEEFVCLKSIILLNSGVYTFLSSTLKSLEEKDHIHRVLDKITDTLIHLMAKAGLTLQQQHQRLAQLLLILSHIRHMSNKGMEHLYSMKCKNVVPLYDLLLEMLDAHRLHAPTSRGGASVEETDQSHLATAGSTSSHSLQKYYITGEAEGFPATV
Measurement notes: Creatine kinase expression (ER/CK) in Ad5-wt-hERα infected HAECT-1 cells
Cond: efficacy relative to the maximal stimulation observed with E2
Attribute measured: ER/CK % E2 (% E2)

I = Cn1nc(-c2ccc(O)cc2O)c2cccc(C(F)(F)F)c21
II = Cn1nc(-c2ccc(O)cc2O)c2cc(F)ccc21
III = Cn1nc(-c2ccc(O)cc2)c2cccc(F)c21
query: Sort by ER/CK % E2, descending. Provide your answer as the labels ordered per the instruction.
result: II, III, I

---

Tested on: human ERα (Homo sapiens)
Measurement notes: Creatine kinase expression (ER/CK) in Ad5-wt-hERα infected HAECT-1 cells
Cond: efficacy relative to the maximal stimulation observed with E2
Attribute measured: ER/CK % E2 (% E2)

P = Cn1nc(-c2ccc(O)cc2)c2cccc(Cl)c21
Q = Oc1ccc(-c2nn(C3CCCC3)c3c(C(F)(F)F)cccc23)c(O)c1
query: # return whichever of P and Q has the smaller ER/CK % E2 Indicate which entry you chose by stating its label.
result: Q

---

Tested on: human ERα (Homo sapiens, UniProt P03372)
Measurement notes: NF-κB luciferase reporter (ER/NF-KB-luc) in Ad5-wt-hERα infected HAECT-1 cells
Cond: HAECT1, read-out: ER/NF-KB-luc % E2, efficacy relative to the maximal inhibition observed with E2
Attribute measured: Emax (%)

{"columns": ["Compound", "Reading unit", "Recorded result"],
 "data": [
  ["Cn1nc(-c2ccc(O)cc2)c2cccc(F)c21 [Example 200]", "%", 86],
  ["C=CCn1nc2c(C(F)(F)F)cccc2c1-c1ccc(O)cc1 [Example 59]", "%", 90],
  ["OCCn1nc(-c2ccc(O)cc2)c2cccc(F)c21 [Example 188]", "%", 90],
  ["Cc1cccc(-n2nc(-c3ccc(O)cc3O)c3ccc(O)cc32)c1 [Example 23]", "%", 76],
  ["OCCn1nc(-c2ccc(O)cc2)c2cccc(C(F)(F)F)c21 [Example 162]", "%", 84]
]}

I = CCC(CC)Cn1nc(-c2ccc(O)cc2O)c2cccc(C(F)(F)F)c21 [Example 69]
II = CCCn1nc(-c2ccc(O)cc2)c2cccc(C(F)(F)F)c21 [Example 48]
query: # compare Emax for I vs II ; return the one with the smaller value The response must carry the label of the picked entry.
result: I
(I: 68%, II: 107%)

P = CC(C)n1nc(-c2ccc(O)cc2)c2cccc(-c3ccccc3Cl)c21 [Example 234]
Q = CC(C)(C)C(=O)Oc1ccc(-c2nn(C3CCCC3)c3c(F)cccc23)cc1 [Example 112]
R = CCCCn1nc(-c2ccc(O)cc2)c2cccc(C(F)(F)F)c21 [Example 219]
query: Put the compounds in ascending order of Emax. Form field (ranking): labels in requested order.
result: Q, P, R
(Q: 48%, P: 72%, R: 104%)

1 = C=CCn1nc2c(C(F)(F)F)cccc2c1-c1ccc(O)cc1C [Example 72]
2 = CCc1ccc(-c2cccc3c(-c4ccc(O)cc4C)nn(C(C)C)c23)cc1 [Example 251]
query: // compare: 1 vs 2 , metric Emax, want the smaller Please respond with the label that marks your chosen entry.
result: 2

A = Oc1ccc(-c2nn(Cc3ccccc3)c3c(F)cccc23)c(O)c1 [Example 151]
B = Oc1ccc(-c2nn(C3CCCC3)c3c(-c4ccco4)cccc23)cc1 [Example 244]
C = Oc1ccc(-c2nn(-c3ccc(Br)cc3)c3c(C(F)(F)F)cccc23)cc1 [Example 31]
query: Put the entries in order of Emax, starting with the largest number. Quick reminder: the answer is the labels in the order asked.
result: C, A, B
(C: 120%, A: 81%, B: 48%)
